Just for reference, paper PMC10786891 is where these values come from.

Target: T1, EsCas13d, nuclease-dead (Eubacterium siraeum, UniProt B0MS50, R295A;H300A;R849A;H854A)
T1 sequence: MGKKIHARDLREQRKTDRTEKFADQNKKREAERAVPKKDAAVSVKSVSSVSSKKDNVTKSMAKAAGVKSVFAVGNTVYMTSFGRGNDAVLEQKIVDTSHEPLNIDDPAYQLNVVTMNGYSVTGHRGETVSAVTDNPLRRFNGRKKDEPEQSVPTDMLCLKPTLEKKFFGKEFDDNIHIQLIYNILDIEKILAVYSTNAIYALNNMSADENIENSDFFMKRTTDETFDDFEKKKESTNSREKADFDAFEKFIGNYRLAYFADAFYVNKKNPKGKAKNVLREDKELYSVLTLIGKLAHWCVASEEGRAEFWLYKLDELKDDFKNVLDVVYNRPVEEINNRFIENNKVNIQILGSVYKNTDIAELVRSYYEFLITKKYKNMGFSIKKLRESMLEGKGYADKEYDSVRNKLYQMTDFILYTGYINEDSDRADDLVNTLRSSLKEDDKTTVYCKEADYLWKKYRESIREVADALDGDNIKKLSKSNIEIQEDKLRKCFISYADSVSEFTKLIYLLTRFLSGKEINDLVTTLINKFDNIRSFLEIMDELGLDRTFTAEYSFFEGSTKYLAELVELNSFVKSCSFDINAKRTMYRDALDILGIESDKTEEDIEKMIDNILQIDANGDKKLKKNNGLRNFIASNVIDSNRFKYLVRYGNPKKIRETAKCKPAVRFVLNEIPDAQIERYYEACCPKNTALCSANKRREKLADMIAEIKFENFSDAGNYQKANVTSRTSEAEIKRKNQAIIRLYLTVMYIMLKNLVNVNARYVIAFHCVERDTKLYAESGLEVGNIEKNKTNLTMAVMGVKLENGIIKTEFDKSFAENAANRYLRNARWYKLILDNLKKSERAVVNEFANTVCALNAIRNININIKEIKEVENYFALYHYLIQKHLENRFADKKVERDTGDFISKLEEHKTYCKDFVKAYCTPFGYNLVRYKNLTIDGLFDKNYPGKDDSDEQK
Test: crRNA (strand 1, pre-loaded); Mg2+; 40 mM Tris-HCl pH 7.5, 150 mM NaCl, 6 mM MgCl2, 1 mM DTT, 0.1% Tween-20, 0.2 mg/ml BSA; 25 C; 10 min per concentration, then washed
Conditions: tags: His6-TwinStrep-SUMO cleaved; N-terminal SNAP kept (SNAP-Surface 488); label: 3' end held by stalled T7 RNA polymerase
Consider the following binders; for each one, report its pKd.
Give bare numbers, as −log10 of the molar value.

| binder | reported_property | value_measured |
| --- | --- | --- |
| target 1 MT 5'PFS AAC 3'PFS CCG (mixed) RNA 1: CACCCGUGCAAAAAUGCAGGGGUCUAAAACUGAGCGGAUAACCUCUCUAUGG RNA 2: GGGAAUGGAUCCACAUCUACGAAUUCAACCCAUAGAGAGGUUAUCCGCUCACCGAGAUCGGAAGAGCACACGU | pKd | 7.71 |
| target 3 del21,del22 (mixed) RNA 1: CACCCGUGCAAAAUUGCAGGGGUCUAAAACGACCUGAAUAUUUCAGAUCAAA RNA 2: GGGAAUGGAUCCACAUCUACGAAUUCGUUUGAUCUGAAAUAUUCAGGUCUGCAGAUCGGAAGAGCACACGU | pKd | 7.87 |
| target 2 MT 5'PFS UUC 3'PFS UUC (mixed) RNA 1: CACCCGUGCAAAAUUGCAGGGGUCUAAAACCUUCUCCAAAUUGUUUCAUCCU RNA 2: GGGAAUGGAUCCACAUCUACGAAUUCUUCAGGAUGAAACAAUUUGGAGAAGUUCAGAUCGGAAGAGCACACGU | pKd | 7.51 |
| target 1 insC 3' of 20,insU 3' of 5 (mixed) RNA 1: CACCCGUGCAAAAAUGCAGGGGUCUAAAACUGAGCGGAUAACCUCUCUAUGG RNA 2: GGGAAUGGAUCCACAUCUACGAAUUCGUACCACUAGAGAGGUUAUCCGUCUCACCGAGAUCGGAAGAGCACACGU | pKd | 8.07 |
| target 1 MT 5'PFS GAG 3'PFS AGA (mixed) RNA 1: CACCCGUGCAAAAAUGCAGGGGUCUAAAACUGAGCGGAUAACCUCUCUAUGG RNA 2: GGGAAUGGAUCCACAUCUACGAAUUCGAGCCAUAGAGAGGUUAUCCGCUCAAGAAGAUCGGAAGAGCACACGU | pKd | 7.43 |

Below is a list of binders. For each, state its recorded pKd.
1. target 1 insG 3' of 14,insG 3' of 11 (mixed) RNA 1: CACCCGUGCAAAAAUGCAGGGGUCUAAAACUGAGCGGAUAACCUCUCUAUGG RNA 2: GGGAAUGGAUCCACAUCUACGAAUUCGUACCAUAGAGAGGGUGUAUCCGCUCACCGAGAUCGGAAGAGCACACGU
2. target 1 A1U,A9U (mixed) RNA 1: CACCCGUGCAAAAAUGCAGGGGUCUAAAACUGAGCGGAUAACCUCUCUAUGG RNA 2: GGGAAUGGAUCCACAUCUACGAAUUCGUACCAUAGAGAGGUUUUCCGCUCUCCGAGAUCGGAAGAGCACACGU
3. target 1 MT 5'PFS GUA 3'PFS AUC (mixed) RNA 1: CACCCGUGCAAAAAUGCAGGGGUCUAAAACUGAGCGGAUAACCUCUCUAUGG RNA 2: GGGAAUGGAUCCACAUCUACGAAUUCGUACCAUAGAGAGGUUAUCCGCUCAAUCAGAUCGGAAGAGCACACGU

[7.68, 8.11, 7.83]
